Reported melting temperature values for a set of sequences
- Tested on: HeLa Kyoto
- procedure text: melting temperature (median over replicates), in situ; higher = more thermally stable
- condition context: cell cycle stage: G1/S
Return type: number; implicit unit °C.

construct sequence	recorded number
MAAVKDSCGKGEMATGNGRRLHLGIPEAVFVEDVDSFMKQPGNETADTVLKKLDEQYQKYKFMELNLAQKKRRLKGQIPEIKQTLEILKYMQKKKESTNSMETRFLLADNLYCKASVPPTDKVCLWLGANVMLEYDIDEAQALLEKNLSTATKNLDSLEEDLDFLRDQFTTTEVNMARVYNWDVKRRNKDDSTKNKA [VBP1]	53.1
MAAAVPQRAWTVEQLRSEQLPKKDIIKFLQEHGSDSFLAEHKLLGNIKNVAKTANKDHLVTAYNHLFETKRFKGTESISKVSEQVKNVKLNEDKPKETKSEETLDEGPPKYTKSVLKKGDKTNFPKKGDVVHCWYTGTLQDGTVFDTNIQTSAKKKKNAKPLSFKVGVGKVIRGWDEALLTMSKGEKARLEIEPEWAYGKKGQPDAKIPPNAKLTFEVELVDID [FKBP3]	54.2
MAASVEQREGTIQVQGQALFFREALPGSGQARFSVLLLHGIRFSSETWQNLGTLHRLAQAGYRAVAIDLPGLGHSKEAAAPAPIGELAPGSFLAAVVDALELGPPVVISPSLSGMYSLPFLTAPGSQLPGFVPVAPICTDKINAANYASVKTPALIVYGDQDPMGQTSFEHLKQLPNHRVLIMKGAGHPCYLDKPEEWHTGLLDFLQGLQ [ABHD14B]	52.9
MEDEMPKTLYVGNLSRDVTEALILQLFSQIGPCKNCKMIMDTAGNDPYCFVEFHEHRHAAAALAAMNGRKIMGKEVKVNWATTPSSQKKDTSSSTVVSTQRSQDHFHVFVGDLSPEITTEDIKAAFAPFGRISDARVVKDMATGKSKGYGFVSFFNKWDAENAIQQMGGQWLGGRQIRTNWATRKPPAPKSTYESNTKQLSYDEVVNQSSPSNCTVYCGGVTSGLTEQLMRQTFSPFGQIMEIRVFPDKGYSFVRFNSHESAAHAIVSVNGTTIEGHVVKCYWGKETLDMINPVQQQNQIGYPQPYGQWGQWYGNAQQIGQYMPNGWQVPAYGMYGQAWNQQGFNQTQSSAPWMGPNYGVQPPQGQNGSMLPNQPSGYRVAGYETQ [TIA1]	53.5
MAVSVTPIRDTKWLTLEVCREFQRGTCSRPDTECKFAHPSKSCQVENGRVIACFDSLKGRCSRENCKYLHPPPHLKTQLEINGRNNLIQQKNMAMLAQQMQLANAMMPGAPLQPVPMFSVAPSLATNASAAAFNPYLGPVSPSLVPAEILPTAPMLVTGNPGVPVPAAAAAAAQKLMRTDRLEVCREYQRGNCNRGENDCRFAHPADSTMIDTNDNTVTVCMDYIKGRCSREKCKYFHPPAHLQAKIKAAQYQVNQAAAAQAAATAAAMTQSAVKSLKRPLEATFDLGIPQAVLPPLPKRPALEKTNGATAVFNTGIFQYQQALANMQLQQHTAFLPPVPMVHGATPATVSAATTSATSVPFAATATANQIPIISAEHLTSHKYVTQM [MBNL1]	52.3
MSGGLLKALRSDSYVELSQYRDQHFRGDNEEQEKLLKKSCTLYVGNLSFYTTEEQIYELFSKSGDIKKIIMGLDKMKKTACGFCFVEYYSRADAENAMRYINGTRLDDRIIRTDWDAGFKEGRQYGRGRSGGQVRDEYRQDYDAGRGGYGKLAQNQ [NCBP2]	51.4
MGLGPVFLLLAGIFPFAPPGAAAEPHSLRYNLTVLSWDGSVQSGFLTEVHLDGQPFLRCDRQKCRAKPQGQWAEDVLGNKTWDRETRDLTGNGKDLRMTLAHIKDQKEGLHSLQEIRVCEIHEDNSTRSSQHFYYDGELFLSQNLETKEWTMPQSSRAQTLAMNVRNFLKEDAMKTKTHYHAMHADCLQELRRYLKSGVVLRRTVPPMVNVTRSEASEGNITVTCRASGFYPWNITLSWRQDGVSLSHDTQQWGDVLPDGNGTYQTWVATRICQGEEQRFTCYMEHSGNHSTHPVPSGKVLVLQSHWQTFHVSAVAAAAIFVIIIFYVRCCKKKTSAAEGPELVSLQVLDQHPVGTSDHRDATQLGFQPLMSDLGSTGSTEGA [MICA]	55.9
MAETYDFLFKFLVIGSAGTGKSCLLHQFIENKFKQDSNHTIGVEFGSRVVNVGGKTVKLQIWDTAGQERFRSVTRSYYRGAAGALLVYDITSRETYNSLAAWLTDARTLASPNIVVILCGNKKDLDPEREVTFLEASRFAQENELMFLETSALTGENVEEAFLKCARTILNKIDSGELDPERMGSGIQYGDASLRQLRQPRSAQAVAPQPCGC [RAB4B]	56.8
MGKSDFLTPKAIANRIKSKGLQKLRWYCQMCQKQCRDENGFKCHCMSESHQRQLLLASENPQQFMDYFSEEFRNDFLELLRRRFGTKRVHNNIVYNEYISHREHIHMNATQWETLTDFTKWLGREGLCKVDETPKGWYIQYIDRDPETIRRQLELEKKKKQDLDDEEKTAKFIEEQVRRGLEGKEQEVPTFTELSRENDEEKVTFNLSKGACSSSGATSSKSSTLGPSALKTIGSSASVKRKESSQSSTQSKEKKKKKSALDEIMEIEEEKKRTARTDYWLQPEIIVKIITKKLGEKYHKKKAIVKEVIDKYTAVVKMIDSGDKLKLDQTHLETVIPAPGKRILVLNGGYRGNEGTLESINEKTFSATIVIETGPLKGRRVEGIQYEDISKLA [KIN]	51.1

Return melting temperature (reported value) for this sequence: MKDPSRSSTSPSIINEDVIINGHSHEDDNPFAEYMWMENEEEFNRQIEEELWEEEFIERCFQEMLEEEEEHEWFIPARDLPQTMDQIQDQFNDLVISDGSSLEDLVVKSNLNPNAKEFVPGVKYGNI [PAIP2]
50.5

====

Reported solubility change mitosis (log2) values for a set of sequences
- Test system: HeLa Kyoto
- procedure text: solubility change mitosis vs G1/S (difference of NP-40 vs SDS log2 ratios) (log2 ratio difference); higher = more soluble in mitosis
Number, no unit, nothing else.

construct sequence	solubility change mitosis (log2)
MATDELATKLSRRLQMEGEGGGETPEQPGLNGAAAAAAGAPDEAAEALGSADCELSAKLLRRADLNQGIGEPQSPSRRVFNPYTEFKEFSRKQIKDMEKMFKQYDAGRDGFIDLMELKLMMEKLGAPQTHLGLKNMIKEVDEDFDSKLSFREFLLIFRKAAAGELQEDSGLCVLARLSEIDVSSEGVKGAKSFFEAKVQAINVSSRFEEEIKAEQEERKKQAEEMKQRKAAFKELQSTFK [EFHD2]	0.139

Return solubility change mitosis (log2) (reported value) for this sequence: MGGGWWWARAARLARLRFRRSLLPPQRPRSGGARGSFAPGHGPRAGASPPPVSELDRADAWLLRKAHETAFLSWFRNGLLASGIGVISFMQSDMGREAAYGFFLLGGLCVVWGSASYAVGLAALRGPMQLTLGGAAVGAGAVLAASLLWACAVGLYMGQLELDVELVPEDDGTASAEGPDEAGRPPPE [TMEM160]
-0.0483

====

Reported thermal stability score values for a set of sequences
- Test system: HeLa Kyoto
- procedure text: thermal stability score vs G1/S (z-score of summed log2 fold changes over temperatures); higher = more thermally stable than in G1/S
- condition context: cell cycle stage: mitosis
Number, no unit, nothing else.

construct sequence	thermal stability score
MAARTVIIDHGSGFLKAGTAGWNEPQMVFPNIVNYLPCKENPGPSYARRRVSLGIDICHPDTFSYPIERGRILNWEGVQYLWSFVLENHRREQEVPPVIITETPLREPADRKKMLEILFELLHVPSVLLADQLQMSLYASGLLTGVVVDSGYGLTRVQPFHQGRPLPASGKTLEFAGQDLSAYLLKSLFKEDCDRRCLFQLETVAVTQMNKCYVPQNLGEALDFRERQQSALDESNTYQLPDGSRVELTPMQRVAPEMFFSPQVFEQPGPSIPRAIVESVESCEISLRPLLVSHVMACGGNTLYPGFTKRLFRELMGDHVSSTKATVWEGSNRNFSVWLGASVVAHLSTYQSEWMSREEYGEHMRM [ACTL8]	-1.1

Turning now to a further record.
Return thermal stability score (reported value) for this sequence: MNWELLLWLLVLCALLLLLVQLLRFLRADGDLTLLWAEWQGRRPEWELTDMVVWVTGASSGIGEELAYQLSKLGVSLVLSARRVHELERVKRRCLENGNLKEKDILVLPLDLTDTGSHEAATKAVLQEFGRIDILVNNGGMSQRSLCMDTSLDVYRKLIELNYLGTVSLTKCVLPHMIERKQGKIVTVNSILGIISVPLSIGYCASKHALRGFFNGLRTELATYPGIIVSNICPGPVQSNIVENSLAGEVTKTIGNNGDQSHKMTTSRCVRLMLISMANDLKEVWISEQPFLLVTYLWQYMPTWAWWITNKMGKKRIENFKSGVDADSSYFKIFKTKHD [DHRS7]
-1.34
